# experimental-system: G12C-mutant human KRAS (amino acid residues 1-188) (Homo sapiens, UniProt P01116, G12C)
# Construct: G12D or G12C-mutant human KRAS (amino acid residues 1-188) with FLAG tag; made in house; host or cells: E. coli
# Sequence (P01116 1-188 isoform P01116-2 G12C): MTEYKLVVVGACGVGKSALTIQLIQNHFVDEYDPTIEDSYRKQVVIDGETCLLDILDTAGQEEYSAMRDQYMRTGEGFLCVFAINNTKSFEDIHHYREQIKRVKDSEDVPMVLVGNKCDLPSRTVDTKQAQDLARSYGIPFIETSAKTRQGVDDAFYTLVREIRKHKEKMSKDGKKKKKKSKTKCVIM
# method-notes: KRAS Binding Disruption Assay (AlphaScreen; biotinylated KRpep-2d analogue or RAF1-RBD), G12C
# condition-parameters: geometric mean, read-out: KRAS GMean IC50 (uM) MUTATION: G12C
outcome-measure: IC50

Past entries and their recorded results:
CN1CCC[C@H]1COc1nc(N2C[C@H]3CC[C@@H](C2)N3C(N)=O)c2ccc(-c3cc(O)cc4ccccc34)c(F)c2n1 :: 0.0001 to 10 µM
O=C(CCCn1ccnc1)N1[C@@H]2CC[C@H]1CN(c1nc(OCC34CCCN3CCC4)nc3c(F)c(-c4cc(O)cc5ccccc45)ccc13)C2 :: 0.0001 to 10 µM
O=C1CCC2(CN(c3nc(N4C[C@H]5CC[C@@H](C4)N5)c4ccc(-c5cc(O)cc6ccccc56)c(F)c4n3)C2)N1 :: 100 to 1000 µM

Return the recorded IC50 value; entry: Oc1cc(-c2ccc3c(N4C[C@H]5CC[C@@H](C4)N5)nc(OCC4CCC4)nc3c2F)c2ccccc2c1
10 to 100 µM
